- Target: human orexin 1 receptor (hOx1R) (Homo sapiens, UniProt O43613)
- Construct: expressed in transfected cells
- Sequence (O43613 whole entry): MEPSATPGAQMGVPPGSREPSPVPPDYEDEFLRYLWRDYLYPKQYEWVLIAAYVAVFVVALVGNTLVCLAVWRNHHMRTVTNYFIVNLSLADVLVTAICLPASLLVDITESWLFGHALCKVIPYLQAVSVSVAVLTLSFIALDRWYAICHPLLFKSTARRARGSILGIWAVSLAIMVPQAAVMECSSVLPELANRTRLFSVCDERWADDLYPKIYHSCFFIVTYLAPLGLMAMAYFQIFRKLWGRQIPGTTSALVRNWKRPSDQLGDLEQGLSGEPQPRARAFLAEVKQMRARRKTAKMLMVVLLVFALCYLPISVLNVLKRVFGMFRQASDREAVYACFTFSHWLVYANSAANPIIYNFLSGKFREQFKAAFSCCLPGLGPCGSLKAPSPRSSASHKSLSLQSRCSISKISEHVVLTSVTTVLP
- Experiment: Radioligand binding assay ([125I]orexin A competition), hOx1R
- Test Context: CHO or HEK cell membranes, 1 h room temperature
# Kd annotations
Give the quantity in nM, number only.

Kd in this record for CN(C(=O)c1cccc2cc[nH]c12)[C@H](CCNC(=O)c1ccccn1)Cc1ccccc1 [Example 38] : 86

Reported Kd ( Cc1nc(C(=O)NCC[C@H](Cc2ccccc2)N(C)C(=O)c2ccccc2)c(-c2ccccc2F)s1 [Example 27] ) = 783

###

- Target: human orexin 1 receptor (hOx1R) (Homo sapiens, UniProt O43613)
- Construct: expressed in transfected cells
- Experiment: Radioligand binding assay ([125I]orexin A competition), hOx1R
- Test Context: CHO or HEK cell membranes, 1 h room temperature
pKd: −log10 of the molar value.
Tick true (1) if pKd is 6 or greater. Tick false (0) if pKd is less than 6.

Record CN(C(=O)c1cccc2c1OCO2)[C@H](CCNC(=O)c1ccccn1)Cc1ccc(F)cc1 ; criterion: pKd no lower than 6. Met? false (0)

hey, is pKd for this one >= 6? CN(C(=O)c1ccc(C(F)(F)F)cc1)[C@H](CCNC(=O)c1ccccn1)Cc1ccccc1 false (0)

Say whether CN(C(=O)c1cccc2c1OCO2)[C@H](CCNC(=O)c1ccccn1)Cc1ccc(Cl)cc1 shows pKd of 6 or more. false (0)

# bool: pKd of CCCCC(=O)NCCC(Cc1ccccc1)N(C)C(=O)c1cc(C(F)(F)F)cc(C(F)(F)F)c1 (stereo not drawn) >= 6 false (0)

Next:
Please indicate if the recorded pKd for CN(C(=O)c1ccccc1)[C@H](CCNC(=O)c1ccccn1)Cc1ccc(Cl)cc1 meets or exceeds 6. false (0)

Quick check, pKd >= 6? Cc1cccc(C(=O)N(C)[C@H](CCNC(=O)c2ccccn2)Cc2ccccc2)c1 true (1)

Is reported pKd greater than or equal to 6 here: COc1cc(OC)cc(C(=O)N(C)[C@H](CCNC(=O)c2ccccn2)Cc2ccccc2)c1 false (0)

Determine whether this compound has pKd no lower than 6: CN(C(=O)c1ccccc1)[C@H](CCNC(=O)c1cccc2cccnc12)Cc1ccccc1 false (0)

Is pKd at least 6? Consider CCN(C(=O)c1cccc2c1OCO2)[C@H](CCNC(=O)c1ccccn1)Cc1ccccc1 false (0)

Exam item: decide whether the reported pKd for CCN(C(=O)c1cc(C(F)(F)F)cc(C(F)(F)F)c1)[C@H](CCNC(=O)c1ccccn1)Cc1ccccc1 is at least 6. false (0)

Has CN(C(=O)c1ccc2c(c1)OCC2)[C@H](CCNC(=O)c1cccn1C)Cc1ccccc1 a recorded pKd greater than or equal to 6? true (1)

Given CCOc1cc(OCC)cc(C(=O)N(C)[C@H](CCNC(=O)c2cccn2C)Cc2ccccc2)c1 , state whether its pKd is at least 6. true (1)

Please check the record CN(C(=O)c1ccc2ccccc2c1)[C@H](CCNC(=O)c1ccccn1)Cc1ccc(F)cc1 and state if its pKd is at or above 6. false (0)

Hello, I need to know if CCCN(C(=O)c1cccc2c1OCO2)[C@H](CCNC(=O)c1ccccn1)Cc1ccccc1 has measured pKd not below 6. Thanks! false (0)
